Biological target: T1, cCEACAM5, M. fascicularis CEACAM5 ECD (35-688) (Macaca fascicularis)
T1 construct: ECD followed by a 24 amino acid extension containing a His-Tag; also called cynomolgus CEACAM5; monkey CEACAM5
T1 chain: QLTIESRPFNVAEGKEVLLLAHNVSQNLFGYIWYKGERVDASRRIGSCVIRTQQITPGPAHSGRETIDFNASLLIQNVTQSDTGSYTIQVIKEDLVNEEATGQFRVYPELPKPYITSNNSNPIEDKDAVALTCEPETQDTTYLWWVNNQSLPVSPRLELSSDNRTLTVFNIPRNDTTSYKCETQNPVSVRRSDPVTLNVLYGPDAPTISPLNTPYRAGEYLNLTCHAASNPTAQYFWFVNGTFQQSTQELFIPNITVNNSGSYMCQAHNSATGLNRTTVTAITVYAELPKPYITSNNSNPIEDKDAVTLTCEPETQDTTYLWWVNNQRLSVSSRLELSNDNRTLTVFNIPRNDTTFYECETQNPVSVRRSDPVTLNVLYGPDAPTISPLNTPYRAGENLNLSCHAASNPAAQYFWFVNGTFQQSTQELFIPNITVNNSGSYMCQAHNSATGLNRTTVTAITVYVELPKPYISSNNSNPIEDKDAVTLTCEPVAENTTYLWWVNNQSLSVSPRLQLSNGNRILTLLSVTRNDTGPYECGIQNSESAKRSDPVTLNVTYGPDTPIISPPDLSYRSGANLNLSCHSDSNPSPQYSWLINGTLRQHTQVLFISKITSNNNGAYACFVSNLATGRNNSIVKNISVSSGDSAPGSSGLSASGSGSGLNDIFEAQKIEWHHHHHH
Assay: ELISA, chimeric mAb
QUANTITY: pEC50
Just the number, please; pEC50 means minus log10 of the concentration in mol/L.

Request: Request the reported pEC50 associated with chMAb5 (antibody, human IgG1, kappa, V domains shown, Chimeric, human IgG1 / Ckappa) VH: ELQLVESGGVLVKPGGSLKLSCAASGFAFSSYDMSWVRQTPEKRLEWVTYINSGGGITYYPDTVKGRFTISRDNARNTLYLQMSSLKSEDTAIYYCTAHYFGSSGPFAYWGQGTLVTVSA VL: DIQMTQSPASLSASVGETVTITCRASENIYSYLAWYQQKQGKSPQLLVYNAKTLTEGVPSRFSGSGSGTQFSLKINSLQPEDFGSYYCQHHYGTPFTFGSGTKLEIKR
Response: 9.89
